Biological target: human CYP 1A2 (Homo sapiens, UniProt P05177)
Sequence (P05177 1-516): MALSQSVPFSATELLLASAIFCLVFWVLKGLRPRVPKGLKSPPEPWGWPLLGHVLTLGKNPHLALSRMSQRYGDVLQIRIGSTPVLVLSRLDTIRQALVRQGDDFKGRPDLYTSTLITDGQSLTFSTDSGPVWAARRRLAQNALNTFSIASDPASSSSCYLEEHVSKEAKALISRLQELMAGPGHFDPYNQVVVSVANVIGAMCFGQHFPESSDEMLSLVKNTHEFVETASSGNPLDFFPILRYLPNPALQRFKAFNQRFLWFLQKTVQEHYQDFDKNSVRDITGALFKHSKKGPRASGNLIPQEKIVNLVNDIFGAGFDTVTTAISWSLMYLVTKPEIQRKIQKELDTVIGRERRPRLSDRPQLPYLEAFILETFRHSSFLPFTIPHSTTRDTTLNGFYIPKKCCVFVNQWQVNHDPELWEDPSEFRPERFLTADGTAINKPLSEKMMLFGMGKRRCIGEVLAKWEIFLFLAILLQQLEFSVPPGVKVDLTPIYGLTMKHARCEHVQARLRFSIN
Labelling: Residual (ΔGbind^Obs–ΔG bind ^Calc), error in prediction reported below -4 kJ/mol becomes TRUE; at or above becomes FALSE.

# example entries with known answers
COc1ccc(C=O)cc1 [Compound 11, p-methoxybenzaldehyde] = FALSE
Cc1cccc2c(C)cccc12 [Compound 39, 1,5-Dimethylnaphthalene] = FALSE
Oc1cccc2ccccc12 [Compound 9, 1-naphthol] = TRUE

Exercise: Dear reviewer, please state whether Oc1ccc2ccccc2c1 [Compound 10, 2-naphthol] has Residual (ΔGbind^Obs–ΔG bind ^Calc), error in prediction strictly beneath -4 kJ/mol.
Key: TRUE

====

biological target: UniProt P05177; details: training set
Property: Residual (ΔGbind^Obs—ΔGbind^Calc)
Put down the number, then write its unit next to it.

CC(C)NCC(O)COc1cccc2ccccc12 (stereo not shown) [Compound 25, Propranolol] = -0.263 kcal/mol
O=C1Cc2ccccc2O1 [Compound 60, 2-Coumarone] = -0.263 kcal/mol

The molecule listed as CN1C(=O)CC[C@H]1c1cccnc1 [Compound 73, Cotinine] has a reported Residual (ΔGbind^Obs—ΔGbind^Calc) of 1.84 kcal/mol

Cc1cccc(C)c1OCC(C)N (stereo not shown) [Compound 23, Mexiletine] has a reported Residual (ΔGbind^Obs—ΔGbind^Calc) of -1.86 kcal/mol

Entry c1ccc2c(c1)CCO2 [Compound 62, 2,3-Dihydrobenzofuran] ; Residual (ΔGbind^Obs—ΔGbind^Calc) = -0.096 kcal/mol

Noted for Cc1ccc(C)c2ccccc12 [Compound 36, 1,4-Dimethylnaphthalene] : its Residual (ΔGbind^Obs—ΔGbind^Calc) reads -1.77 kcal/mol

Record CCCCC1CCCCC1 [Compound 68, Butylcyclohexane] . Reported Residual (ΔGbind^Obs—ΔGbind^Calc): 0.526 kcal/mol

Memo: O=C(O)c1cccnc1Nc1cccc(C(F)(F)F)c1 [Compound 16, Niflumic Acid] , reported Residual (ΔGbind^Obs—ΔGbind^Calc): 0.693 kcal/mol

// O=C1CCC(c2ccccc2)O1 (stereo not shown) [Compound 70, γ-Phenyl-γ-butyrolactone] : Residual (ΔGbind^Obs—ΔGbind^Calc) value = 1.36 kcal/mol

// recorded Residual (ΔGbind^Obs—ΔGbind^Calc) for Cc1cccc(Nc2ccccc2C(=O)O)c1C [Compound 1, Mefenamic Acid] : 1.03 kcal/mol

For this molecule ( O=c1[nH]c2ccccc2o1 [Compound 64, 2-Benzoxazolinone] ), measured Residual (ΔGbind^Obs—ΔGbind^Calc) is 0.19 kcal/mol

The reported Residual (ΔGbind^Obs—ΔGbind^Calc) of the molecule Cc1cccc2ccccc12 [Compound 28, 1-Methylnaphthalene] was -0.502 kcal/mol

Record Fc1ccc2ccccc2c1 [Compound 32, 2-Fluoronaphthalene] , field Residual (ΔGbind^Obs—ΔGbind^Calc): -1.34 kcal/mol

====

biological target: human CYP 1A2 (Homo sapiens)
Property: Residual (ΔGbind^Obs—ΔGbind^Calc) (kJ/mol)
A number alone suffices; assume kJ/mol.

In the examples that follow, each entry is paired with its recorded Residual (ΔGbind^Obs—ΔGbind^Calc).
Cc1ccc2cc(C)ccc2c1 = -1.9
Cc1ccc2ccccc2c1 = -3.3
c1ccc2ccccc2c1 = -2.3

I looked up CCC1CCC(=O)O1 (centres unmarked) and its Residual (ΔGbind^Obs—ΔGbind^Calc) for human CYP 1A2 (Homo sapiens) was 4.0

The observed Residual (ΔGbind^Obs—ΔGbind^Calc) for Clc1ccc(-c2ccccc2)cc1 when tested with human CYP 1A2 (Homo sapiens) stands at 0.1

====

target: human CYP 1A2 (Homo sapiens, UniProt P05177); experiment: in-house CYP 1A2 inhibition assay with 7-methoxyresorufin as substrate (resorufin fluorescence)
Property: IC50 (µM)
A number alone suffices; assume µM.

COc1ccccc1OCCNCC(O)COc1cccc2[nH]c3ccccc3c12 (stereo not drawn) [Compound 3, Carvedilol] = 5
Cc1cccc(Nc2ccccc2C(=O)O)c1C [Compound 1, Mefenamic Acid] = 19
Oc1cccc2ccccc12 [Compound 9, 1-naphthol] = 2
Cc1c2ccncc2c(C)c2c1[nH]c1ccccc12 [Compound 5, Ellipticine] = 0.007
Nc1c2c(nc3ccccc13)CCCC2 [Compound 2, Tacrine] = 2.3

Query compound follows.
Notebook: Oc1ccc2ccccc2c1 [Compound 10, 2-naphthol] , IC50 read as 4.4

====

Below, each entry is listed alongside its reported ΔGbind^Obs.
tested on: recombinant CYP 1A2; conditions: human
Express your answer in kcal/mol, writing the number without its unit.

# annotated cases, reported ΔGbind^Obs shown
CCc1ccc2ccccc2c1 [Compound 31, 2-Ethylnaphthalene] = -6.91
c1ccc2c(c1)CCC2 [Compound 63, Indan] = -4.88
Cc1ccc2ccccc2c1 [Compound 30, 2-Methylnaphthalene] = -5.78

According to the records, this compound CCC1CCC(=O)O1 (stereo not shown) [Compound 52, γ-Caprolactone] displays ΔGbind^Obs of -3.15

====

test system: CYP 1A2; conditions: from literature IC50, Source 2 (Ref. 58)
The entries below come with measured ΔG bind (lit) values attached.
All answers are understood in kJ/mol, so give the number only.

Previously resolved entries follow.
Cc1c2ccncc2c(C)c2c1[nH]c1ccccc12 [Compound 5, Ellipticine] = -41.8
Clc1ccccc1CN1CCc2sccc2C1 [Compound 8, Ticlopidine] = -31.8
CCOc1ccc(NC(C)=O)cc1 [Compound 6, Phenacetin] = -27.9

Observed ΔG bind (lit) on CYP 1A2, entry O=c1cc(-c2ccccc2)oc2c1ccc1ccccc12 [Compound 7, alpha-Naphthoflavone] , equals -42.6

====

target: human CYP 1A2 (Homo sapiens, UniProt P05177); settings: test set
Property: Residual (ΔGbind^Obs–ΔG bind ^Calc), error in prediction (kcal/mol)
Field: numeric (kcal/mol). Do not append units.

Past entries and their recorded results:
Clc1ccccc1-c1ccccc1 [Compound 66, 2-Chlorobiphenyl] = 0.669
Cc1ccc2cccc(C)c2c1 [Compound 41, 1,7-Dimethylnaphthalene] = -1.46
Cc1ccc2c(C)cccc2c1 [Compound 40, 1,6-Dimethylnaphthalene] = -0.454
COC1=CC(=O)OC1 [Compound 71, 4-Methoxyfuran-2-(5H)-one] = 1.34
CCc1ccc2ccccc2c1 [Compound 31, 2-Ethylnaphthalene] = -0.789

Lab book: Residual (ΔGbind^Obs–ΔG bind ^Calc), error in prediction of C[C@]12CC[C@@H]3c4cc(F)c(O)cc4CC[C@H]3[C@@H]1CC[C@@H]2O [Compound 20, 2-Fluoroestradiol] noted as 1.67

So, CCCCc1ccccc1 [Compound 69, Butylbenzene] ? Its Residual (ΔGbind^Obs–ΔG bind ^Calc), error in prediction was 1.43

Just so you know, measured Residual (ΔGbind^Obs–ΔG bind ^Calc), error in prediction for Cc1ccc2ccc(C)cc2c1 [Compound 43, 2,7-Dimethylnaphthalene] came out at 0

Sample O=c1c(O)c(-c2ccc(O)c(O)c2)oc2cc(O)cc(O)c12 [Compound 14, Quercetin] ; Residual (ΔGbind^Obs–ΔG bind ^Calc), error in prediction observed: 1.91

The compound identified as Cc1ccc(CCN)cc1 [Compound 12, p-tolylethylamine] registered its Residual (ΔGbind^Obs–ΔG bind ^Calc), error in prediction at -1.53

====

molecular target: human CYP 1A2 (Homo sapiens)
Label rule, in plain words: Residual (ΔGbind^Obs—ΔGbind^Calc) of -0.7 kcal/mol and up is true, under -0.7 kcal/mol is false.

Reference set (4 entries):
CCOc1ccc(NC(C)=O)cc1 [Compound 6, Phenacetin] = false
c1ccc(-c2ccccc2)cc1 [Compound 65, Biphenyl] = true
Cc1cc(C)oc(=O)c1 [Compound 72, 4,6-Dimethyl-α-pyron] = true
CC1CCC(=O)O1 (centres unmarked) [Compound 51, γ-Valerolactone] = true

Moving on to another compound below.
Exercise: Would you say Nc1c2c(nc3ccccc13)CCCC2 [Compound 2, Tacrine] shows Residual (ΔGbind^Obs—ΔGbind^Calc) at minimum -0.7 kcal/mol?
Key: true

====

Target: human CYP 1A2 (Homo sapiens)
Sequence (P05177 1-516): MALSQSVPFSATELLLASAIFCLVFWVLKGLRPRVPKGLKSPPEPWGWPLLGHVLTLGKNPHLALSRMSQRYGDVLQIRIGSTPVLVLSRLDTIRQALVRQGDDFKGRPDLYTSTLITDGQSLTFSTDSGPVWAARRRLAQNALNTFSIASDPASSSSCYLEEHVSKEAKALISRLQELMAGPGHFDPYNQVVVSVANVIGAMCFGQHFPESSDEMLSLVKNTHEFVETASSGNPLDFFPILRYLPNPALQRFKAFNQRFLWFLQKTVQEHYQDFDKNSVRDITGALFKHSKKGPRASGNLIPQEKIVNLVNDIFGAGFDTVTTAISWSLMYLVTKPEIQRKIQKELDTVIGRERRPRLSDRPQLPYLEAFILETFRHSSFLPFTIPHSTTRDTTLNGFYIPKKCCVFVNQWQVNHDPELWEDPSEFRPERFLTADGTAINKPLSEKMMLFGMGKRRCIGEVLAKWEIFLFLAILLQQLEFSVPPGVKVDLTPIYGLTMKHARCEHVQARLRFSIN
Assay: in-house CYP 1A2 inhibition assay with 7-methoxyresorufin as substrate (resorufin fluorescence)
Conditions: read-out: IC 50 (inhouse)
Property: IC50
Write the numeric value and follow it with the unit.

Measured IC50, COc1ccc(C=O)cc1 : 410 µM

The reported measurements were obtained from paper PMC4638363.
